# credit: ChEMBL document CHEMBL5053499

Tested on: HeLa
assayProtocol: Cytotoxicity against human HeLa cells assessed as reduction in cell viability measured after 48 hrs by CCK8 assay
Format: functional, cell-based
pIC50: −log10 of the molar value.
observable: pIC50

compound	measuredTarget	pIC50
O=C(O)c1ccc(O)c2c1Cc1cccn1-2	HeLa	< 4.70
CS[C@@]1(Cc2c[nH]c3ccccc23)NC(=O)[C@H]([C@@H](C)O)NC1=O	HeLa	< 4.70
C[C@@H](O)[C@@H]1OC(=O)[C@@H]2[C@H]3c4c[nH]c5cccc(c45)C[C@H]3C(C)(C)N2C1=O	HeLa	< 4.70
C[C@@H](O)[C@]12SS[C@@]3(C(=O)N1C)[C@H](O)[C@@]1(c4c[nH]c5ccccc45)c4ccccc4N[C@H]1N3C2=O	HeLa	6.38
CN1C(=O)C(=O)N2C(=C[C@@]3(c4c[nH]c5ccccc45)c4ccccc4N[C@@H]23)C1=O	HeLa	< 4.70

Items follow; give pIC50 for each.
1. CS[C@@]1(Cc2c[nH]c3ccccc23)NC(=O)[C@@](SC)([C@@H](C)O)NC1=O
2. CS[C@@H]1C(=O)N2[C@@H]3Nc4ccccc4[C@]3(c3c[nH]c4ccccc34)[C@@H](O)[C@@]2(SC)C(=O)N1C

["< 4.70", "< 4.70"]

Answer for every listed entry: what is its pIC50? The entries follow.
1. C[C@@H](O)[C@@H]1NC(=O)[C@H](Cc2c[nH]c3ccccc23)NC1=O
2. C[C@@H](O)[C@]12SS[C@@]3(C(=O)N1C)[C@H](O)C1([C@]45c6ccccc6N[C@H]4N4C(=O)[C@@]6([C@@H](C)O)SS[C@@]4(C(=O)N6C)[C@@H]5O)c4ccccc4N[C@H]1N3C2=O (some centres undefined)

< 4.70
6.92

----------
Tested on: Ralstonia solanacearum
assayProtocol: Antimicrobial activity against Ralstonia solanacearum assessed as reduction in bacterial growth at 100 ug/ml measured after 48 hrs by double dilution method
Type: functional, organism-based
runConditions: dose 100.0 µg/ml
Calls of active or inactive are those of the source. The rule behind the calls is not given here.
observable: Activity

compound	readoutValue
C[C@@H](O)[C@]12SS[C@@]3(C(=O)N1C)[C@H](O)C1([C@]45c6ccccc6N[C@H]4N4C(=O)[C@@]6([C@@H](C)O)SS[C@@]4(C(=O)N6C)[C@@H]5O)c4ccccc4N[C@H]1N3C2=O (stereo partly drawn)	inactive
CS[C@@H]1C(=O)N2[C@@H]3Nc4ccccc4[C@]3(c3c[nH]c4ccccc34)[C@@H](O)[C@@]2(SC)C(=O)N1C	inactive
CS[C@@]1(Cc2c[nH]c3ccccc23)NC(=O)[C@@](SC)([C@@H](C)O)NC1=O	inactive

----------
Test system: Phytophthora capsici
assayProtocol: Antifungal activity against Phytophthora capsici assessed as inhibition of fungal growth measured after 72 hrs by double dilution method
Type: functional, organism-based
The source made the active and inactive calls. The rule behind the calls is not given here.
observable: Activity

In [3]: df
Out[3]:
                             chemicalsmiles  readoutvalue
0  C[C@@H](O)[C@@H]1NC(=O)[C@H](Cc2c[nH]c3ccccc23)NC1=O      inactive
1  C[C@H](O)[C@H]1NC(=O)[C@@H](Cc2c[nH]c3ccccc23)NC1=O      inactive
2  C[C@@H](O)[C@@H]1OC(=O)[C@@H]2[C@H]3c4c[nH]c5cccc(c45)C[C@H]3C(C)(C)N2C1=O      inactive
3              O=C(O)c1ccc(O)c2c1Cc1cccn1-2      inactive
